ADCC reporter (Jurkat-CD16a v158-NFAT-luciferase), target cell H322, EC50 overview
- study.system: T1, human Trop-2 (on the surface of human cell lines) (human, UniProt P09758 27-323)
- T1 sequence: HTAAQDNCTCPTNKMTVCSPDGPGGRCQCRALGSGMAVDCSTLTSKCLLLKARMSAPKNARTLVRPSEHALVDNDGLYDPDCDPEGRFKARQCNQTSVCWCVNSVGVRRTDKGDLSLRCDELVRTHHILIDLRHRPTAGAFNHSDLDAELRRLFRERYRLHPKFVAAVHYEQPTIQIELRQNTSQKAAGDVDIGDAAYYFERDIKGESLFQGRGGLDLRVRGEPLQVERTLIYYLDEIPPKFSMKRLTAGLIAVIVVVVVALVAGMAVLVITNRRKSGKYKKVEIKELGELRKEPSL
- assay.text: cell-based or functional assay
recorded.endpoint: ADCC reporter (Jurkat-CD16a v158-NFAT-luciferase), target cell H322, EC50

binder="hz-Ab35-2.2 (antibody, human IgG1, kappa, V domains shown, Humanized antibody) VH: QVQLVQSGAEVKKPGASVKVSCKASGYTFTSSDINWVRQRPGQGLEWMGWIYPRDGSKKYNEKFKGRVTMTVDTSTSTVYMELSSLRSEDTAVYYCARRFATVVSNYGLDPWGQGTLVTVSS VL: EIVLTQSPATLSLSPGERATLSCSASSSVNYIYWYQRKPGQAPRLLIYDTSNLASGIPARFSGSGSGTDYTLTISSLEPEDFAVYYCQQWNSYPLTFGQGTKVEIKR" value_observed="0.11 nM"
binder="hz-Ab2-1.4 (antibody, human IgG1, kappa, V domains shown, Humanized antibody) VH: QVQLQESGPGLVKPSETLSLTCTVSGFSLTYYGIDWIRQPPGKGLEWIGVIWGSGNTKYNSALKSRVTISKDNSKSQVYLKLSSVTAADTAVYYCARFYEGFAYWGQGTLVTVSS VL: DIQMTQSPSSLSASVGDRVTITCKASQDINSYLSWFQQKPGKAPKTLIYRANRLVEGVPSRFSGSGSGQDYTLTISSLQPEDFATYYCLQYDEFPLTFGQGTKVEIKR" value_observed="0.34 nM"
binder="hz-Ab2-2.4 (antibody, human IgG1, kappa, V domains shown, Humanized antibody) VH: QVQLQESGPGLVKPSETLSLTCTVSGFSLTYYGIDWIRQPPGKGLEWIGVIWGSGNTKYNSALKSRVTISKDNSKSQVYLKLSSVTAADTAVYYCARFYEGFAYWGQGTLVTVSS VL: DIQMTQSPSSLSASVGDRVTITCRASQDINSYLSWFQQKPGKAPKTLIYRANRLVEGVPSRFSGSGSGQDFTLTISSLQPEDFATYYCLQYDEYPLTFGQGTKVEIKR" value_observed="0.66 nM"
binder="hz-Ab35-2.3 (antibody, human IgG1, kappa, V domains shown, Humanized antibody) VH: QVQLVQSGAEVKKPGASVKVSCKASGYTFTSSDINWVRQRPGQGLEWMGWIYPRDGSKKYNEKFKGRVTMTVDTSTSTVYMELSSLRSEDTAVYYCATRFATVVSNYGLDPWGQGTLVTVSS VL: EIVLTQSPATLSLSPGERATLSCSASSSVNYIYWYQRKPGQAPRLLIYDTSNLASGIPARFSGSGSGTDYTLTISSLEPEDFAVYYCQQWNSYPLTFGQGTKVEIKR" value_observed="0.11 nM"
binder="hz-Ab35-2.1 (antibody, human IgG1, kappa, V domains shown, Humanized antibody) VH: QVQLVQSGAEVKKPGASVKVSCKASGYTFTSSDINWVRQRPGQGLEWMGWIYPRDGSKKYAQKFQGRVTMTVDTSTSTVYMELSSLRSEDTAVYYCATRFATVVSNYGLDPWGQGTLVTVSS VL: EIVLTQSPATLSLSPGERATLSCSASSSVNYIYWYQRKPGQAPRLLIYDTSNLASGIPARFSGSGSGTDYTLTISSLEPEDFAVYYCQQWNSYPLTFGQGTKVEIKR" value_observed="0.1 nM"
